koff for assorted binders
TEST_TARGET: T1, Lassa NPn (N-terminal portion of NP encoding residues 1-340) (Lassa virus lineage IV, strain Josiah, UniProt P13699)
T1 construct: source: bought: Zalgen (recombinant)
T1 sequence (P13699 1-340): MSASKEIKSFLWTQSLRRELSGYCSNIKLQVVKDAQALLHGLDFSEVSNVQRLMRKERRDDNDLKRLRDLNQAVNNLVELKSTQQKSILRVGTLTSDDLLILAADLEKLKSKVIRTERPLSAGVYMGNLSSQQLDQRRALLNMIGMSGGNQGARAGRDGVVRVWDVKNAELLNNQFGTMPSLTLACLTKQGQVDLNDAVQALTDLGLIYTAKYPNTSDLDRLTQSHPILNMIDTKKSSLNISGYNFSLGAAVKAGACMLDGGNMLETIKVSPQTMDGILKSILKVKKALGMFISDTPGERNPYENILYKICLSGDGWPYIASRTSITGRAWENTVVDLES
METHOD_SUMMARY: SPR; ProteOn XPR36; […] (20 ug/mL in 10 mM sodium acetate pH 5.0); […]; Langmuir model
SETUP_CONDITIONS: both partners purified
Could you give me the number in s⁻¹? Just the number is fine.

>>> meas_value("sdAb B5 (VHH, source: E. coli Tuner (DE3), periplasmic, purified (osmotic shock, IMAC, gel filtration)) VHH: EVQLQASGGGLAQPGGSLRLSCAASGFTLVYYGIGWFRQAPGKEREGVSCISSNDGSTYYADSVKGRFTISRDAAKNTVYLQMNSLKPEDTAVYYCATELGNTHRGSFFPNRRVERCRTDDFASWGQGTQVTVSS")
0.0061

Now look at this entry.
Which koff reading was recorded for the binder sdAb G11 (VHH, source: E. coli Tuner (DE3), periplasmic, purified (osmotic shock, IMAC, gel filtration)) VHH: DVQLQASGGGLVQAGDSLTLSCAASGRTVSPYGVGWFRQAPGREREFVAALSRSGTFTAYADSVKGRFTISRDNAKNTVYLQMNSLKPDDTAVYHCAARSASSYYSTYRKEDDYHYWGQGTQVTVSS ? 0.07

The reported numbers originate from paper PMC7768477.
